Listed compounds paired with reported growth inhibition
Tested on: SUDIPGXIII (diffuse intrinsic pontine glioma line)
run description: growth inhibition (% activity, log2 RLU normalised to DMSO / staurosporine); higher = more growth inhibition
details: 33 µM
Write the number in % without appending the unit.

The examples below pair each entry with its known result.
compound=CN(C)[C@@H]1C(=O)C(C(N)=O)=C(O)[C@@]2(O)C(=O)C3=C(O)c4c(O)ccc(Cl)c4[C@@](C)(O)[C@H]3C[C@@H]12 parameter_measured="growth inhibition" output_unit=% number=-1.15
compound="COc1ccc(OC)c(C(O)C(C)N)c1 (stereo not given)" parameter_measured="growth inhibition" output_unit=% number=-0.103
compound="CCC(COC(=O)c1cc(OC)c(OC)c(OC)c1)(c1ccccc1)N(C)C (stereo not given)" parameter_measured="growth inhibition" output_unit=% number=-13.6
compound=O=C(O[C@H]1C[N+]2(CCCOc3ccccc3)CCC1CC2)C(O)(c1cccs1)c1cccs1 parameter_measured="growth inhibition" output_unit=% number=0.0508

Now for a further compound.
Task item: Which measured growth inhibition value corresponds to C/C=C(\C)C(=O)N[C@@H](c1ccccc1)[C@@H](O)C(=O)O[C@H]1C[C@@]2(O)[C@@H](OC(=O)c3ccccc3)[C@@H]3[C@]4(OC(C)=O)CO[C@@H]4C[C@H](O)[C@@]3(C)C(=O)[C@H](OC(C)=O)C(=C1C)C2(C)C ?
Reply: 4.19

---

Test system: DIPGX9 (diffuse intrinsic pontine glioma line)
run description: growth inhibition (% activity, log2 RLU normalised to DMSO / staurosporine); higher = more growth inhibition
details: 33 µM
parameter measured: growth inhibition (%)
Write the number in % without appending the unit.

molecule=C[C@@H]1O[C@@H](O[C@H]2C[C@@H](O)[C@]3(CO)[C@H]4[C@H](O)C[C@]5(C)[C@@H](C6=CC(=O)OC6)CC[C@]5(O)[C@@H]4CC[C@]3(O)C2)[C@H](O)[C@H](O)[C@H]1O parameter_measured="growth inhibition" number=26.1
molecule="CN1C(=O)COc2c(C(=O)NC3CN4CCC3CC4)cc(Cl)cc21 (stereo unspecified)" parameter_measured="growth inhibition" number=3.07
molecule="CCC1(c2cccc(O)c2)CCCCN(C)C1 (stereo unspecified)" parameter_measured="growth inhibition" number=0.246
molecule="CC(C)c1c(CN(C)C(C)Cc2ccccc2)n(C)n(-c2ccccc2)c1=O (stereo unspecified)" parameter_measured="growth inhibition" number=-0.334
molecule=Cn1c(CCCC(=O)O)nc2cc(N(CCCl)CCCl)ccc21 parameter_measured="growth inhibition" number=11.2
molecule=N[C@@H]1C[C@H]1c1ccccc1.N[C@H]1C[C@@H]1c1ccccc1 parameter_measured="growth inhibition" number=-0.549
molecule=CN(C)C(=O)Oc1cccc([N+](C)(C)C)c1 parameter_measured="growth inhibition" number=-1.38
molecule=CNCC(=O)c1ccc(O)c(O)c1 parameter_measured="growth inhibition" number=-0.688
molecule=O=C(O)c1nn(Cc2ccc(Cl)cc2Cl)c2ccccc12 parameter_measured="growth inhibition" number=-0.0993
molecule=CCOC(=O)c1cncn1[C@H](C)c1ccccc1 parameter_measured="growth inhibition" number=2.62

Now for a further molecule.
Task item: Which measured growth inhibition value corresponds to C[C@]12CCC(=O)C=C1C=C[C@@H]1[C@@H]2CC[C@@]2(C)[C@H]1CC[C@@]2(O)CCC(=O)O ?
Reply: 1.05

---

Listed molecules paired with reported growth inhibition
Tested on: SUDIPGIV (diffuse intrinsic pontine glioma line)
run description: growth inhibition (% activity, log2 RLU normalised to DMSO / staurosporine); higher = more growth inhibition
details: 33 µM
Write the number in % without appending the unit.

molecule=C[C@]12CC[C@H](O)CC1=CC[C@@H]1[C@@H]2CC[C@]2(C)C(=O)CC[C@@H]12 assay_system=SUDIPGIV number=2.37
molecule="O=P1(NCCCl)OCCCN1CCCl (stereo unspecified)" assay_system=SUDIPGIV number=-2.15
molecule="CN1c2ccccc2C(NCCCCCCC(=O)O)c2ccc(Cl)cc2S1(=O)=O (stereo unspecified)" assay_system=SUDIPGIV number=-2.29
molecule=C=C1C[C@@H]2[C@H](CC[C@]3(C)C(=O)CC[C@@H]23)[C@@]2(C)C=CC(=O)C=C12 assay_system=SUDIPGIV number=-2.53
molecule=O=C(O[C@H]1C[C@H]2CC[C@@H](C1)[N+]21CCCC1)C(O)(c1ccccc1)c1ccccc1 assay_system=SUDIPGIV number=-1.98

Task item: Which measured growth inhibition value corresponds to NCC(O)c1ccc(O)cc1 (stereo unspecified) ?
Reply: 1.19

---

Listed compounds paired with reported growth inhibition
Test system: SUDIPGVI (diffuse intrinsic pontine glioma line)
run description: growth inhibition (% activity, log2 RLU normalised to DMSO / staurosporine); higher = more growth inhibition
details: 33 µM
Write the number in % without appending the unit.

The examples below pair each entry with its known result.
compound="CCC(COC(=O)c1cc(OC)c(OC)c(OC)c1)(c1ccccc1)N(C)C (configuration not stated)" assay_system=SUDIPGVI output_unit=% number=-0.409
compound="C[N+]1(C)CCCC(OC(=O)C(O)(c2ccccc2)c2ccccc2)C1 (configuration not stated)" assay_system=SUDIPGVI output_unit=% number=-2.44
compound="CN1c2ccccc2C(NCCCCCCC(=O)O)c2ccc(Cl)cc2S1(=O)=O (configuration not stated)" assay_system=SUDIPGVI output_unit=% number=-1.84

Task item: Which measured growth inhibition value corresponds to N[C@@H]1C[C@H]1c1ccccc1.N[C@H]1C[C@@H]1c1ccccc1 ?
Reply: 3.88

Task item: And CC(=O)Nc1cc([As](=O)(O)O)ccc1O ?
Reply: 0.903

Task item: And CC(=O)OC1CN2CCC1CC2 (configuration not stated) ?
Reply: 1.26

Task item: And c1ccc2c(c1)sc1ccccc12 ?
Reply: -1.87

Task item: And CCC1(c2cccc(O)c2)CCCCN(C)C1 (configuration not stated) ?
Reply: -3.26

---

Listed compounds paired with reported growth inhibition
Tested on: SUDIPGXIII
run description: growth inhibition (% activity, log2 RLU normalised to DMSO / staurosporine); higher = more growth inhibition
details: 33 µM
Write the number in % without appending the unit.

The examples below pair each entry with its known result.
compound=O=S(=O)(F)Cc1ccccc1 assay_system=SUDIPGXIII number=0.305
compound="O=P1(N(CCCl)CCCl)NCCCO1 (centres undefined)" assay_system=SUDIPGXIII number=-0.0596
compound=Nc1nc(N)nc(NC2CC2)n1 assay_system=SUDIPGXIII number=0.454
compound="C[N+]1(C)CCCC(OC(=O)C(O)(c2ccccc2)c2ccccc2)C1 (centres undefined)" assay_system=SUDIPGXIII number=-1.44
compound="CNC1CC(N)C(O)C(OC2OC(CO)C(O)C3OC4(OC(C(N)CO)C(O)C(O)C4O)OC23)C1O (centres undefined)" assay_system=SUDIPGXIII number=-0.132
compound="Cc1c(N)nc(C(CC(N)=O)NCC(N)C(N)=O)nc1C(=O)NC(C(=O)NC(C)C(O)C(C)C(=O)NC(C(=O)NCCc1nc(-c2nc(C(=O)NCCC[S+](C)C)cs2)cs1)C(C)O)C(O[C@@H]1O[C@@H](CO)[C@@H](O)[C@H](O)[C@@H]1O[C@H]1O[C@H](CO)[C@@H](O)[C@H](OC(N)=O)[C@@H]1O)c1cnc[nH]1 (some centres undefined)" assay_system=SUDIPGXIII number=4.14
compound=C#C[C@]1(O)C=C[C@H]2[C@@H]3CCC4=CC(=O)CC[C@@H]4[C@H]3CC[C@@]21CC assay_system=SUDIPGXIII number=0.6
compound=CC(C)N(CCNC(=O)CN1CCCC1=O)C(C)C assay_system=SUDIPGXIII number=2.1

Now for a further compound.
Task item: Which measured growth inhibition value corresponds to C=CCN.ClCC1CO1 (centres undefined) ?
Reply: 0.672

---

Tested on: DIPGX7 (H3.3 K27M diffuse intrinsic pontine glioma line)
run description: growth inhibition (% activity, log2 RLU normalised to DMSO / staurosporine); higher = more growth inhibition
details: 33 µM
Listed compounds paired with reported growth inhibition
Write the number in % without appending the unit.

compound=CC(C)N(CCNC(=O)CN1CCCC1=O)C(C)C assay_system=DIPGX7 number=1.76
compound="CCC1(c2ccc(N)cc2)CCC(=O)NC1=O (stereo unspecified)" assay_system=DIPGX7 number=0.848

Now for a further compound.
Task item: Which measured growth inhibition value corresponds to C[N+]1(C)CCCC(OC(=O)C(O)(c2ccccc2)c2ccccc2)C1 (stereo unspecified) ?
Reply: -0.262

---

Listed compounds paired with reported growth inhibition
Test system: HGGX6 (H3.3 G34R paediatric high-grade glioma line)
run description: growth inhibition (% activity, log2 RLU normalised to DMSO / staurosporine); higher = more growth inhibition
details: 33 µM
Write the number in % without appending the unit.

compound="CN(C)C1C(=O)C(C(N)=O)=C(O)C2(O)C(=O)C3=C(O)c4c(O)cccc4C(C)(O)C3CC12 (stereo unspecified)" assay_system=HGGX6 parameter_measured="growth inhibition" number=-0.661

Task item: Which measured growth inhibition value corresponds to CC[C@@]1(O)C(=O)OCc2c1cc1n(c2=O)Cc2cc3ccccc3nc2-1 ?
Reply: 13.4

Task item: And CNC(=O)Oc1ccc2c(c1)[C@]1(C)CCN(C)[C@@H]1N2C ?
Reply: 1.68

Task item: And CCC(COC(=O)c1cc(OC)c(OC)c(OC)c1)(c1ccccc1)N(C)C (stereo unspecified) ?
Reply: 5.32

Task item: And CN(C)[C@@H]1C(=O)C(C(N)=O)=C(O)[C@@]2(O)C(=O)C3=C(O)c4c(O)ccc(Cl)c4[C@@](C)(O)[C@H]3C[C@@H]12 ?
Reply: 3.5

Task item: And CC(NC(C)(C)C)C(=O)c1cccc(Cl)c1 (stereo unspecified) ?
Reply: 0.445
